Quick reference for pKi among some molecules
target: human mu opioid receptor (Homo sapiens, UniProt P35372); construct: expressed in transfected cells; host or cells: CHO cells, stably transfected; assay: Radioligand binding, [3H]DAMGO (μ), CHO membranes
Sequence (P35372 whole entry): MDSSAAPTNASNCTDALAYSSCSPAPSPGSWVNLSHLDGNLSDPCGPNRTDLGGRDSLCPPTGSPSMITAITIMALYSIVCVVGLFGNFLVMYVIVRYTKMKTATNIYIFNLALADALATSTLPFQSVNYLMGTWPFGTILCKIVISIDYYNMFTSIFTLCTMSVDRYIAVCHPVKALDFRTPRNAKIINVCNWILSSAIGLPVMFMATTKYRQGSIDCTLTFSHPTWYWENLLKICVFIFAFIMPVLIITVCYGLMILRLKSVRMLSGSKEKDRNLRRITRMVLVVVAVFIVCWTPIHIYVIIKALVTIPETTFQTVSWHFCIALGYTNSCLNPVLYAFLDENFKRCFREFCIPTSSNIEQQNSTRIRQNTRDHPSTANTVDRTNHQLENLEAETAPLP
# pKi is unitless: minus log10 of the molar concentration; print number only

O=C1c2ccc(O)cc2[C@@]23CCCC[C@H]2[C@@H]1N(CCCF)CC3 ... 7.70
C#CCN1CC[C@]23CCCC[C@H]2[C@H]1C(=O)c1ccc(O)cc13 [Compound 73, 3-Hydroxy-10-keto-N-propargylmorphinan] ... 6.72
COCCN1CC[C@]23CCCC[C@H]2[C@H]1C(=O)c1ccc(O)cc13 ... 7.05

Note: attention shifts to another entry.
I would be grateful if you could share the reported pKi for `O=C1c2ccc(O)cc2[C@@]23CCCC[C@H]2[C@@H]1N(CCc1ccccc1)CC3` .
9.20

====

molecular target: human mu opioid receptor (Homo sapiens); construct: expressed in transfected cells; host or cells: CHO cells, stably transfected; experiment: Radioligand binding, [3H]DAMGO (μ), CHO membranes; conditions: read-out: Ki (nM) ± SE [3H]DAMGO (μ); Table 1; CHO membranes, 25° C., mean ± SEM of three experiments in triplicate
Ki for assorted compounds
Write the value in nM as a bare number.

Nc1nc2cc3c(cc2s1)C[C@@H]1[C@@H]2CCCC[C@]32CCN1CC1CCC1 ... 7.1

If you can, please state the reported Ki value of `Nc1nc2cc3c(cc2s1)C[C@@H]1[C@@H]2CCCC[C@]32CCN1CC1CC1` .
1.5

Reported Ki, compound `CN1CC[C@]23CCCC[C@H]2[C@H]1Cc1cc2sc(N)nc2cc13` : ____
130

====

biological target: human kappa opioid receptor (Homo sapiens, UniProt P41145); construct: expressed in transfected cells; host or cells: CHO cells, stably transfected; experiment: Radioligand binding, [3H]U69,593 (κ), CHO membranes
Sequence (P41145 whole entry): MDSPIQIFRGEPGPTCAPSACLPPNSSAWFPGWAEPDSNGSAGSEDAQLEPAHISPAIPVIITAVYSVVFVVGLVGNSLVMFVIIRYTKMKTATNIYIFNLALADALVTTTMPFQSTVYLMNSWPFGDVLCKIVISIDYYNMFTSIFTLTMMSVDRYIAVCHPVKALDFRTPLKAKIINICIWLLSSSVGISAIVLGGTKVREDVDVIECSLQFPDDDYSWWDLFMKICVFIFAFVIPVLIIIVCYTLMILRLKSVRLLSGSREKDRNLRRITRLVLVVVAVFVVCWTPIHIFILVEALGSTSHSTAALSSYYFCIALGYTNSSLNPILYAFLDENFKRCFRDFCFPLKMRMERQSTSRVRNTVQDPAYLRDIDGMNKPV
Value kind: Ki (nM)
State the answer as a number, implicitly in nM.

C#CCN1CC[C@]23CCCC[C@H]2[C@H]1C(=O)c1ccc(O)cc13 [Compound 73, 3-Hydroxy-10-keto-N-propargylmorphinan] ... 60

Recorded Ki for O=C1c2ccc(O)cc2[C@@]23CCCC[C@H]2[C@@H]1N(CCc1ccccc1)CC3 [Compound 77] , please?
7.7

Which Ki value belongs to COCCN1CC[C@]23CCCC[C@H]2[C@H]1C(=O)c1ccc(O)cc13 [Compound 76] ?
17

====

Target: human kappa opioid receptor (Homo sapiens, UniProt P41145)
Construct: expressed in transfected cells; host or cells: CHO cells, stably transfected
Assay: Radioligand binding, [3H]U69,593 (κ), CHO membranes
Conditions: Table 1; CHO membranes, 25° C., mean ± SEM of three experiments in triplicate; read-out: Ki (nM) ± SE [3H]U69,593 (κ)
Protocol: Compounds can be characterized in radioligand receptor binding assays, using ligands that are specific for the mu, delta and kappa receptors. […] The cells and media from the plates are centrifuged at 200×g for 10 mm at 4° C.; resuspended in 50 mM Tris-HCl, pH 7.5; homogenized by the use of a Polytron; centrifuged at 48,000×g for 20 mm at 4° C.; and resuspended in 50 mM Tris-HCl, pH 7.5, at a protein concentration of 5-10 mg/ml, as determined by the Bradford method. […]
Value kind: Ki
Show the value, then the unit it is measured in.

Here are 3 molecules together with their reported answers.
CN1CC[C@]23CCCC[C@H]2[C@H]1Cc1c3ccc2nc(N)sc12 [Compound 70] ... 6.4 nM
Nc1nc2cc3c(cc2s1)C[C@@H]1[C@@H]2CCCC[C@]32CCN1CC1CC1 [Compound 71] ... 0.049 nM
Nc1nc2cc3c(cc2s1)C[C@@H]1[C@@H]2CCCC[C@]32CCN1CC1CCC1 [Compound 72] ... 0.79 nM

Next item in the queue.
Recorded Ki of CN1CC[C@]23CCCC[C@H]2[C@H]1Cc1cc2sc(N)nc2cc13 [Compound 69] , please.
29 nM

====

target: human kappa opioid receptor (Homo sapiens, UniProt P41145); construct: expressed in transfected cells; host or cells: CHO cells, stably transfected; assay: Radioligand binding, [3H]U69,593 (κ), CHO membranes; conditions: Table 2; CHO membranes, 25° C., mean ± SEM of three experiments in triplicate; read-out: Ki (nM) ± SE [3H]U69,593 (κ)
Value kind: Ki (nM)
Unit nM implied. Number only.

Given `O=C1c2ccc(O)cc2[C@@]23CCCC[C@H]2[C@@H]1N(CC1CCC1)CC3` , state its recorded Ki.
0.48

====

target: human delta opioid receptor (Homo sapiens); construct: expressed in transfected cells; host or cells: CHO cells, stably transfected; assay: Radioligand binding, [3H]naltrindole (δ), CHO membranes
Value kind: Ki

// Ki lookup, key: `COCCN1CC[C@]23CCCC[C@H]2[C@H]1C(=O)c1ccc(O)cc13`
> 10 µM

====

target: human kappa opioid receptor (Homo sapiens, UniProt P41145); construct: expressed in transfected cells; host or cells: CHO cells, stably transfected; experiment: Radioligand binding, [3H]U69,593 (κ), CHO membranes; conditions: Table 1; ratio of Ki values
Value kind: Selectivity μ:κ
Enter the number alone.

CN1CC[C@]23CCCC[C@H]2[C@H]1Cc1cc2sc(N)nc2cc13 [Compound 69] ... 4.5
CN1CC[C@]23CCCC[C@H]2[C@H]1Cc1c3ccc2nc(N)sc12 [Compound 70] ... 0.17
Nc1nc2cc3c(cc2s1)C[C@@H]1[C@@H]2CCCC[C@]32CCN1CC1CCC1 [Compound 72] ... 9.0

// lookup Selectivity μ:κ for Nc1nc2cc3c(cc2s1)C[C@@H]1[C@@H]2CCCC[C@]32CCN1CC1CC1 [Compound 71]
30

====

biological target: human mu opioid receptor (Homo sapiens, UniProt P35372); construct: expressed in transfected cells; host or cells: CHO cells, stably transfected; assay: Radioligand binding, [3H]DAMGO (μ), CHO membranes; conditions: read-out: Ki (nM) ± SE [3H]DAMGO (μ); Table 2; CHO membranes, 25° C., mean ± SEM of three experiments in triplicate
Value kind: Ki (nM)
Express your answer in nM, writing the number without its unit.

Could you tell me which Ki is on file for `O=C1c2ccc(O)cc2[C@@]23CCCC[C@H]2[C@@H]1N(CC1CCC1)CC3` ?
3.3

====

target: human delta opioid receptor (Homo sapiens, UniProt P41143); construct: expressed in transfected cells; host or cells: CHO cells, stably transfected; experiment: Radioligand binding, [3H]naltrindole (δ), CHO membranes; conditions: read-out: Ki (nM) ± SE [3H]Naltrindole (δ); Table 2; CHO membranes, 25° C., mean ± SEM of three experiments in triplicate
Sequence (P41143 whole entry): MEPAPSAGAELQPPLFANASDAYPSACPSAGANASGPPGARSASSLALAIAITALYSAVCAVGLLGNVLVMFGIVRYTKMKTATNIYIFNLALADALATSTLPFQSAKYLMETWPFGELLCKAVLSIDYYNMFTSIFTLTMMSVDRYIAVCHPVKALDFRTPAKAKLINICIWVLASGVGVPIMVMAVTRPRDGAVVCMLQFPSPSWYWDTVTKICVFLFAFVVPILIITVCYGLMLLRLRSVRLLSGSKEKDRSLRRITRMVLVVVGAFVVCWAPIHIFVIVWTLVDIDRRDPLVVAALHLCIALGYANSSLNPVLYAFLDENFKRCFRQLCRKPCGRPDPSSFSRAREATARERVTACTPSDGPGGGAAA
Value kind: Ki (nM)
Note: unit nM is implicit; provide only the numeric part.

Example entries begin here.
O=C1c2ccc(O)cc2[C@@]23CCCC[C@H]2[C@@H]1N(CC1CCC1)CC3 ... 260
C#CCN1CC[C@]23CCCC[C@H]2[C@H]1C(=O)c1ccc(O)cc13 [Compound 73, 3-Hydroxy-10-keto-N-propargylmorphinan] ... 2300
O=C1c2ccc(O)cc2[C@@]23CCCC[C@H]2[C@@H]1N(CCCF)CC3 ... 690

// returns reported Ki for input `O=C1c2ccc(O)cc2[C@@]23CCCC[C@H]2[C@@H]1N(CCc1ccccc1)CC3`
9.7

====

molecular target: human delta opioid receptor (Homo sapiens); construct: expressed in transfected cells; host or cells: CHO cells, stably transfected; assay: Radioligand binding, [3H]naltrindole (δ), CHO membranes; details: Table 1; CHO membranes, 25° C., mean ± SEM of three experiments in triplicate
Value kind: Ki (nM)
Write the number in nM without appending the unit.

Query: Ki; subject: `CN1CC[C@]23CCCC[C@H]2[C@H]1Cc1c3ccc2nc(N)sc12`
190

====

target: human kappa opioid receptor (Homo sapiens); construct: expressed in transfected cells; host or cells: CHO cells, stably transfected; experiment: Radioligand binding, [3H]U69,593 (κ), CHO membranes; settings: Table 2; ratio of Ki values
Selectivity μ:κ listing for selected molecules.
# answer = number (no unit)

O=C1c2ccc(O)cc2[C@@]23CCCC[C@H]2[C@@H]1N(CCc1ccccc1)CC3 [Compound 77] ... 0.08
O=C1c2ccc(O)cc2[C@@]23CCCC[C@H]2[C@@H]1N(CC1CCC1)CC3 [Compound 74] ... 6.9
C#CCN1CC[C@]23CCCC[C@H]2[C@H]1C(=O)c1ccc(O)cc13 [Compound 73, 3-Hydroxy-10-keto-N-propargylmorphinan] ... 3.2

Kindly consider the entry below.
Would you mind telling me what Selectivity μ:κ value was observed for COCCN1CC[C@]23CCCC[C@H]2[C@H]1C(=O)c1ccc(O)cc13 [Compound 76] ?
5.3

====

// reported Ki per item
Target: human delta opioid receptor (Homo sapiens)
Construct: expressed in transfected cells; host or cells: CHO cells, stably transfected
Assay: Radioligand binding, [3H]naltrindole (δ), CHO membranes
Settings: read-out: Ki (nM) ± SE [3H]Naltrindole (δ); Table 1; CHO membranes, 25° C., mean ± SEM of three experiments in triplicate
Method: Compounds can be characterized in radioligand receptor binding assays, using ligands that are specific for the mu, delta and kappa receptors. […] The cells and media from the plates are centrifuged at 200×g for 10 mm at 4° C.; resuspended in 50 mM Tris-HCl, pH 7.5; homogenized by the use of a Polytron; centrifuged at 48,000×g for 20 mm at 4° C.; and resuspended in 50 mM Tris-HCl, pH 7.5, at a protein concentration of 5-10 mg/ml, as determined by the Bradford method. […]
Numbers only here, please. The scale is nM.

Sample answers from the record:
Nc1nc2cc3c(cc2s1)C[C@@H]1[C@@H]2CCCC[C@]32CCN1CC1CCC1 ... 230
CN1CC[C@]23CCCC[C@H]2[C@H]1Cc1cc2sc(N)nc2cc13 ... 1100

Please provide the recorded Ki for `Nc1nc2cc3c(cc2s1)C[C@@H]1[C@@H]2CCCC[C@]32CCN1CC1CC1` , tested on human delta opioid receptor (Homo sapiens).
29
